Target: EGFR (Homo sapiens, UniProt P00533)
Construct: Kinases are expressed as either kinase domains or full length constructs; made in house
Sequence (P00533 25-1210, species assumed): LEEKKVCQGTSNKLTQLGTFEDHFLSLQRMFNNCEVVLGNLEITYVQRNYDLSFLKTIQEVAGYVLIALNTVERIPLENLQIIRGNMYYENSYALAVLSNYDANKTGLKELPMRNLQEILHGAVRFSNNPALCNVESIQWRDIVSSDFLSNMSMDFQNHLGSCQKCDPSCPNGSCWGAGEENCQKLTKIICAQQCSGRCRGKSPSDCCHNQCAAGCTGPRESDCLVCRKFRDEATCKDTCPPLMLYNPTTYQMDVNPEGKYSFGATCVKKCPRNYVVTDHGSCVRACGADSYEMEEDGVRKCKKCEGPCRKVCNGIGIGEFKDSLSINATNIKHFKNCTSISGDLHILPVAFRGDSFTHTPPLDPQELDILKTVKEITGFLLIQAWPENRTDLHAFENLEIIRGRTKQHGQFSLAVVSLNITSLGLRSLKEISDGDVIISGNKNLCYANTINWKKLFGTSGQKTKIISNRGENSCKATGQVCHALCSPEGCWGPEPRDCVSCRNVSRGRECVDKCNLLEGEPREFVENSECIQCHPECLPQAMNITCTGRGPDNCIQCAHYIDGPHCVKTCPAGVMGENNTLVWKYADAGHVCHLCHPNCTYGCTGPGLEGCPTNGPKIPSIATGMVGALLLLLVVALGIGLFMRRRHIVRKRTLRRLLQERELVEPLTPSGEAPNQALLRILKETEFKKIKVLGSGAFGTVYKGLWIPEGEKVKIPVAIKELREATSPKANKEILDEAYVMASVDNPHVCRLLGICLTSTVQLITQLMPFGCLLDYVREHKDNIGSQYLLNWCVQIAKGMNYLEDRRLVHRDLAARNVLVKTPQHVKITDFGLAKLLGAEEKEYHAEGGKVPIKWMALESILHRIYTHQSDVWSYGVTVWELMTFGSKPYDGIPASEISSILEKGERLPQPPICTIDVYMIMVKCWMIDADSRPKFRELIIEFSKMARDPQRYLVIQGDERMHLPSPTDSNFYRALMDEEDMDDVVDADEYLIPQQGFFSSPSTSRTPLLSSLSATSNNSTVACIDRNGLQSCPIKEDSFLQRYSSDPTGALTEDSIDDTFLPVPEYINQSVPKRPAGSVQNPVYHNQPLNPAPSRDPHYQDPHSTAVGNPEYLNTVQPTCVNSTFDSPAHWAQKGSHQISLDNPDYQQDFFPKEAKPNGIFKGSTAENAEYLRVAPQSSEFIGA
Test: Kinase inhibition assay (33P transfer), EGFR
Type: biochemical
Details: Table 2, kinase inhibition class; read-out: EGFR-1
pIC50: −log10 of the molar value.
Measured pIC50, listed per entry.

COc1cc(Nc2ncnc(N(C)c3cccc4ccccc34)n2)cc(OC)c1OC | > 6.02
COc1cccc(NC(=O)Nc2ncnc(Nc3cc(OC)c(OC)c(OC)c3)n2)c1 | < 4.98
COc1cc(Nc2ncnc(-n3ncc4ccccc43)n2)cc(OC)c1OC | < 4.92
O=c1[nH]c2ccccc2n1-c1ncnc(Nc2ccc(Br)c(Cl)c2)n1 | 5.24 to 6.02

Exam item: Which measured pIC50 value corresponds to "O=c1[nH]c2ccccc2n1-c1ncnc(Nc2ccncc2)n1" ?
Marked response: < 4.83

Exam item: Given the molecule "COc1cc(Nc2ncnc(Nc3cc(F)cc(C(F)(F)F)c3)n2)cc(OC)c1OC" , what is its reported pIC50?
Marked response: > 6.04

Exam item: Please give the measured pIC50 for this molecule: "COc1cc(Nc2ncnc(-n3c(N(C)C)nc4ccccc43)n2)cc(OC)c1OC"
Marked response: < 4.97

----------
Target: Itk (Homo sapiens, UniProt Q08881)
Construct: Kinases are expressed as either kinase domains or full length constructs; made in house
Sequence (Q08881 1-620): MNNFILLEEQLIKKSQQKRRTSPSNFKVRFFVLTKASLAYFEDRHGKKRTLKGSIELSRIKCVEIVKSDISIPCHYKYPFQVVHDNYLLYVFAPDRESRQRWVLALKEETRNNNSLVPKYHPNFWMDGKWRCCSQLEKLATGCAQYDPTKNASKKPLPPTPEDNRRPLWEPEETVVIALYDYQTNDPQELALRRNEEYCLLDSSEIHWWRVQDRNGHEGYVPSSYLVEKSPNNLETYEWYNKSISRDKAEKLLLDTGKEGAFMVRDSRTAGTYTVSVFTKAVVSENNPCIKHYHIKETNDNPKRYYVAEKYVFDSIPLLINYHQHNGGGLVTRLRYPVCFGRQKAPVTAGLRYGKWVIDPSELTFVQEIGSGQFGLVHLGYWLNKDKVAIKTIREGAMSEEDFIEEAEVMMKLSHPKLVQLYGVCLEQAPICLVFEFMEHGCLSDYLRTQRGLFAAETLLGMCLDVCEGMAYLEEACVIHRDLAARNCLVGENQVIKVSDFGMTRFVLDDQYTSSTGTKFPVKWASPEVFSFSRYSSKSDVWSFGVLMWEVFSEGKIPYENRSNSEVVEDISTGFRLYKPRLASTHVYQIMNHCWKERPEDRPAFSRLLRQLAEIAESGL
Test: Kinase inhibition assay (33P transfer), Itk
Type: biochemical
Conditions: Table 3; read-out: Itk-1
pIC50: −log10 of the molar value.
Catalogue of pIC50 values

Exam item: For the molecule Cc1ccc(Nc2ncnc(N)n2)cc1 [Compound 1017] , what pIC50 is on record?
Marked response: < 4.65

Exam item: Endpoint output: pIC50 of COc1cc(Nc2ncnc(-n3ccc4ccccc43)n2)cc(OC)c1OC [Compound 185] . Value?
Marked response: < 4.92

Exam item: Item COc1cc(Nc2ncnc(Nc3ccc(O)cc3Cl)n2)cc(OC)c1OC [Compound 77] has what recorded pIC50?
Marked response: 4.95 to 5.06
